System: HL-60(TB) leukemia
Experiment: NCI-60 one-dose screen, 48 h (100 = growth as untreated, 0 = no growth, -100 = all killed)
Details: 10 µM unless noted
This is part of a sample that, as a whole, favours compounds with a hit. Of some 83,000 tested, about 20% had one in any assay.
Using growth as the sorting value, the categories are low (below 40%), mid (40% to below 90%), high (90% or more)

{"molecule": "Cc1ccc(S(=O)(=O)NCCNc2cc(-c3cn(C(C)(C)C)nc3-c3cccc(O)c3)ccn2)cc1", "group-label": "mid"}
{"molecule": "Cc1ccccc1O", "group-label": "high"}
{"molecule": "O=C(O)/C=C\\C(=O)Nc1cccc2ccccc12", "group-label": "mid"}
{"molecule": "CN1C(=O)N(C)C2Nn3c(s/c(=C\\c4ccccc4)c3=O)=NC21 (stereo unspecified)", "group-label": "high"}
{"molecule": "C/C=C/CC(C)C(O)C1C(=O)NC(CC)C(=O)N(C)CC(=O)N(C)C(CC(C)C)C(=O)NC(C(C)C)C(=O)N(C)C(CC(C)C)C(=O)NC(C)C(=O)NC(C)C(=O)N(C)C(CC(C)C)C(=O)N(C)C(CC(C)C)C(=O)N(C)C(C(C)C)C(=O)N1C (stereo unspecified)", "group-label": "low"}
{"molecule": "CCN(CCCCCCCCCCN1CC(=O)N(CCCCCCCCCCN(CC)Cc2ccccc2OC)CC1=O)Cc1ccccc1OC", "group-label": "low"}
{"molecule": "CN1CCN(CCOc2ccc(-c3cnc4c(-c5cccc(F)c5F)cnn4c3)cc2)CC1", "group-label": "low"}
{"molecule": "CC(=O)c1ccccc1NC(=O)C(C)(c1ccccc1)c1ccccc1", "group-label": "high"}
{"molecule": "O=C1c2ccc3c4c(ccc(c24)C(=O)N1CCCCO)C(=O)N(CCCCO)C3=O", "group-label": "low"}
{"molecule": "FC1(F)CCN(Cc2c[nH]c3cc(Cl)ccc23)C[C@H]1CCc1ccccc1", "group-label": "mid"}
{"molecule": "C=C1C(=O)O[C@H]2[C@H]1CC/C(Cn1cc(-c3ccsc3)nn1)=C\\CC[C@@]1(C)O[C@@H]21", "group-label": "low"}
{"molecule": "COC(=O)C1C2CC3c4[nH]c5cc(OC)ccc5c4CCN3CC2CC(OC2CCCCO2)C1OC (stereo unspecified)", "group-label": "high"}
{"molecule": "O=c1cc(C(F)(F)F)[nH]c(=S)[nH]1", "group-label": "high"}
{"molecule": "CCCCCCN(CCCCCC)c1ccc(/C=C2/SC(=O)NC2=O)c(C)c1", "group-label": "mid"}
{"molecule": "COc1ccc(Cn2cc3c(c2-c2cc(OC)c(OC)c(OC)c2)CCc2cnoc2-3)cc1N", "group-label": "low"}
{"molecule": "CS(=O)(=O)Nc1cccc(-c2ccc3ncnc(Nc4ccc(F)c(Cl)c4)c3c2)c1", "group-label": "low"}
{"molecule": "COc1ccccc1/C=C(/C(=O)c1ccccc1)c1ccccc1", "group-label": "mid"}
{"molecule": "COC(=O)N/N=C/c1coc2ccc(Cl)cc2c1=O", "group-label": "high"}
{"molecule": "O=S(=O)(Nc1cccc2cc(OS(=O)(=O)c3ccccc3)ccc12)c1ccccc1", "group-label": "mid"}
{"molecule": "Cc1cccc(C(=O)O)n1", "group-label": "mid"}
{"molecule": "COc1ccc2c(c1)sc1nc(-c3ccccc3)c(-c3ccsc3)n12", "group-label": "low"}
{"molecule": "COc1cc(/C=C/C(=O)/C=C/c2ccc(-n3ccnc3)cc2)ccc1O", "group-label": "low"}
{"molecule": "COc1cc(CNC(=O)Cc2ccccc2)ccc1OCc1cn(-c2ccc(F)cc2)nn1", "group-label": "high"}
{"molecule": "Cn1cc(-c2nnc(-c3cn(C)c4ncccc34)o2)c2ccccc21", "group-label": "low"}
{"molecule": "CN(c1ncccc1CNc1nc(Nc2ccc3c(c2)CC(=O)N3)ncc1C(F)(F)F)S(C)(=O)=O", "group-label": "low"}
{"molecule": "COc1cc(CNS(=O)(=O)c2ccc(C)cc2)ccc1OCc1cn(-c2ccc(Br)cc2)nn1", "group-label": "high"}
{"molecule": "CC(=O)c1cc(O)ccc1O", "group-label": "mid"}
{"molecule": "CC(=O)OCCC/C(=C/c1cc2ccccc2c2ccccc12)[N+](=O)[O-]", "group-label": "low"}
{"molecule": "O=C(NCc1ccccc1)C1CN(c2ccc(Cl)cc2)N(c2ccc(Cl)cc2)C1=O (stereo unspecified)", "group-label": "mid"}
{"molecule": "Fc1cc(-c2nnc3sc(-c4ccc(Cl)cc4Cl)nn23)c(Cl)cc1Cl", "group-label": "high"}
{"molecule": "NC(=O)C(O)(c1ccccc1)c1ccccc1", "group-label": "high"}
{"molecule": "O=S(=O)(O)c1ccc(F)cc1", "group-label": "high"}
{"molecule": "O=S(=O)(NCCCNc1nccc(-c2c(-c3cccc(O)c3)nc3occn23)n1)c1ccc(Br)cc1", "group-label": "mid"}
{"molecule": "Cc1nn(-c2ccccc2)c(-n2ccnc2)c1/C=N/Nc1nc(-c2ccc(F)cc2)cs1", "group-label": "high"}
{"molecule": "Clc1cccc(-c2nc(-c3cccs3)no2)c1", "group-label": "high"}
{"molecule": "Cc1cc(SCc2ccccc2)nc(N)n1", "group-label": "high"}
{"molecule": "COc1ccc2c(c1)N(CCO)C1=C(C(=O)OC1)C2c1cccc(Br)c1 (stereo unspecified)", "group-label": "low"}
{"molecule": "O=C1Nc2ccccc2/C1=C/C(=O)c1ccc(N2CCCC2)cc1", "group-label": "low"}
{"molecule": "CCOC(=O)/C(C#N)=C(/CC)OCC", "group-label": "high"}

---

Test system: HL-60(TB) leukemia
Experiment: NCI-60 one-dose screen, 48 h
Details: 10 µM unless noted
The panel holds about 83,000 compounds, 20% with a hit somewhere; the sample as a whole holds those more often. Calls of active or inactive are those of the source. Rule for the calls: active = growth percent below 10; inactive = the rest.
Possible outcomes: Y for active, N for inactive

{"compound": "Cc1c(C(=O)Nc2ccccc2F)sc2c(=O)[nH]cnc12", "group-label": "N"}
{"compound": "O=c1oc2c3ccc4cnccc4c3[nH]c2c2ccccc12", "group-label": "N"}
{"compound": "COc1ccc(C(=O)Cn2c(C(=O)c3ccccc3)nc3ccccc32)cc1", "group-label": "Y"}
{"compound": "COc1ccc2c(c1)Oc1nc(N)c(C#N)c(N)c1C2Sc1ccc(O)cc1 (centres undefined)", "group-label": "Y"}
{"compound": "COc1cc(C(C)c2ccc3c(ccn3C)c2)cc(OC)c1OC (centres undefined)", "group-label": "Y"}
{"compound": "CCN1CCN(c2nc(C)cc(N(CCCNc3ccnc4cc(Cl)ccc34)Cc3ccco3)n2)CC1", "group-label": "N"}
{"compound": "COc1cc(C(=C2O[C@@H]([C@H]3COC(C)(C)O3)[C@H]3OC(C)(C)O[C@@H]23)c2cc(OC)c(OC)c(OC)c2)cc(OC)c1OC", "group-label": "N"}
{"compound": "CCCCCCCCCCCCCCCC(=O)O[C@@H]1[C@@H](O)[C@@H](O)C([C@H](NC(=O)[C@@H]2C[C@@H](CCC)CN2C)[C@H](C)Cl)O[C@@H]1SC (some centres undefined)", "group-label": "N"}
{"compound": "NC(=O)c1cc(Cl)ccc1NC(=O)COc1ccccc1", "group-label": "Y"}
{"compound": "Cc1ccc(C(=O)Nc2ccc(CN3CCN(C)CC3)c(C(F)(F)F)c2)cc1C#Cc1cnc(N)c2ccccc12", "group-label": "Y"}
{"compound": "CC1(C)N=C(N)N=C(N)N1c1cccc(Br)c1", "group-label": "N"}
{"compound": "O=C(COc1cccc(/C=C2/Oc3ccccc3C2=O)c1)Nc1nccs1", "group-label": "Y"}
{"compound": "CC[C@H](C)[C@@H]1NC(=O)[C@H](Cc2ccc(O)cc2)N(C)C(=O)[C@H](Cc2ccccc2)NC(=O)CN(C)C(=O)[C@@H]2CCCN2C(=O)[C@@H](Cc2ccccc2)N(C)C(=O)[C@H](CC(C)C)NC1=O", "group-label": "Y"}
{"compound": "N#C/C(=C\\c1ccc(-c2ccc(F)cc2)o1)c1nc(-c2ccco2)cs1", "group-label": "N"}
{"compound": "Cc1ccccc1CCO", "group-label": "N"}
{"compound": "O=C(O)c1ccc(Cl)cc1Nc1ccc(F)cc1", "group-label": "N"}
{"compound": "CC(C)[C@H]1COC(=O)N1[C@@H]1C(=O)N([C@@H](CCC(=O)N2CCN(C3CCCC3)CC2)C(=O)N[C@@H]2CCCc3ccccc32)[C@@H]1/C=C/c1cccc(Cl)c1", "group-label": "Y"}
{"compound": "O=C(O)CCCl", "group-label": "N"}
{"compound": "Cc1nc2scc(-c3ccccc3)n2c(=O)c1CCO", "group-label": "N"}

Data provenance is PubChem BioAssay (NCI).
